species on record: Rattus norvegicus; experiment: DrugMatrix - Regimen: Daily Repeat; type: toxicity, organism-based, Sprague-Dawley; set-up: regimen Daily Repeat, gender Male, age 6-8 weeks; settings: in vivo, iv, 0 mg/kg, 72 h, tissue Plasma, dose level Control, time 3 day, vehicle 100 % SALINE
Starred links: 1 amine or outer side, 2 acyl side, 3 side chain; linkers in the order of their positions; H or OH if unused. Positions of bridges follow the written chain, without caps; N, C: chain ends. Non-standard residues stand in square brackets, D forms with d. Residues, ends and D or L forms follow the SMILES beside them. Chains are numbered I, II in the order given. Actinocin(9to1) = Cc1c2oc3c(C)ccc(C(=O)[*:1])c3nc-2c(C(=O)[*:2])c(N)c1=O; NMeV = CN[C@H](C(=O)O)C(C)C; Sar = CNCC(=O)O
CREATININE reference

Some solved entries appear below for comparison.
- Cc1ccc(N(CC2=NCCN2)c2cccc(O)c2)cc1: 0.22 mg/dL
- Cc1c2oc3c(C)ccc(C(=O)N[C@@H]4C(=O)N[C@H](C(C)C)C(=O)N5CCC[C@H]5C(=O)N(C)CC(=O)N(C)[C@@H](C(C)C)C(=O)O[C@@H]4C)c3nc-2c(C(=O)N[C@@H]2C(=O)N[C@H](C(C)C)C(=O)N3CCC[C@H]3C(=O)N(C)CC(=O)N(C)[C@@H](C(C)C)C(=O)O[C@@H]2C)c(N)c1=O [DACTINOMYCIN] (I: T[dV]P[Sar][NMeV] / II: T[dV]P[Sar][NMeV]; ester I:1-I:C, II:1-II:C; linker I:N-II:N via Actinocin(9to1)): 0.17 mg/dL

[in] Look up CREATININE for this compound: COc1cc2c3cc1Oc1cc(ccc1O)C[C@@H]1c4c(cc(OC)c(O)c4Oc4ccc(cc4)C[C@@H]3N(C)CC2)CC[N+]1(C)C.[Cl-]
[out] 0.22 mg/dL

[in] Next record, please: CC[C@]1(O)C[C@H]2CN(CCc3c([nH]c4ccccc34)[C@@](C(=O)OC)(c3cc4c(cc3OC)N(C=O)[C@H]3[C@@](O)(C(=O)OC)[C@H](OC(C)=O)[C@]5(CC)C=CCN6CC[C@]43[C@@H]65)C2)C1
[out] 0.17 mg/dL

###

organism: Rattus norvegicus; assay: DrugMatrix - Regimen: Daily Repeat; format: toxicity, organism-based, Sprague-Dawley; parameters: regimen Daily Repeat, gender Male, age 6-8 weeks; settings: in vivo, po, 0 mg/kg, 72 h, tissue Blood, route oral GAVAGE, dose level Control, time 3 day, vehicle 100 % WATER
MEAN CORPUSCULAR HEMOGLOBIN CONCENTRATION reference
Units required after the number.

Some solved entries appear below for comparison.
* CNNCc1ccc(C(=O)NC(C)C)cc1 | 39.03 G/DL
* Nc1c2c(nc3ccccc13)CCCC2 | 40.28 G/DL
* COc1cc2nc(N3CCN(C(=O)C4COc5ccccc5O4)CC3)nc(N)c2cc1OC (stereo not given) | 39.15 G/DL

[in] Look up MEAN CORPUSCULAR HEMOGLOBIN CONCENTRATION for this molecule: N[C@@H](Cc1ccc(O)c(O)c1)C(=O)O
[out] 39.15 G/DL

[in] Next record, please: NCCCCCC(=O)O
[out] 38.65 G/DL

[in] Next record, please: c1ccc([C@H]2CN3CCSC3=N2)cc1
[out] 38.7 G/DL

[in] Next record, please: Cn1cc[nH]c1=S
[out] 38.63 G/DL

###

species on record: Rattus norvegicus; test: DrugMatrix - Regimen: Daily Repeat; assay type: toxicity, organism-based, Sprague-Dawley; design: regimen Daily Repeat, gender Male, age 6-8 weeks; settings: in vivo, po, 0 mg/kg, 72 h, tissue Blood, route oral GAVAGE, dose level Control, time 3 day, vehicle 100 % WATER
MEASURE NAME: NEUTROPHIL (%)
Quick note: give the figure in %, leave out the unit.

Some solved entries appear below for comparison.
- CNNCc1ccc(C(=O)NC(C)C)cc1 [PROCARBAZINE]: 7.17
- COc1cc2nc(N3CCN(C(=O)C4COc5ccccc5O4)CC3)nc(N)c2cc1OC (stereo not given) [DOXAZOSIN]: 8.33
- C=CCC1(C(C)CCC)C(=O)NC(=O)NC1=O (stereo not given) [SECOBARBITAL]: 8
- CN(C)CCCN1c2ccccc2Sc2ccc(Cl)cc21 [CHLORPROMAZINE]: 8.67
- Clc1cccc(Cl)c1N=C1NCCN1 [CLONIDINE]: 13.83
- CC(O)CO (stereo not given) [PROPYLENE GLYCOL]: 7.17
- Nc1c2c(nc3ccccc13)CCCC2 [TACRINE]: 14.5
- C[C@H]1c2cccc(O)c2C(=O)C2=C(O)[C@]3(O)C(=O)C(C(N)=O)=C(O)[C@@H](N(C)C)[C@@H]3[C@@H](O)[C@@H]21.O [DOXYCYCLINE]: 8.33

[in] Look up NEUTROPHIL for this compound: C[C@H](CS)C(=O)N1CCC[C@H]1C(=O)O [CAPTOPRIL]
[out] 7

[in] Next record, please: c1ccc([C@H]2CN3CCSC3=N2)cc1 [LEVAMISOLE]
[out] 10.17

###

species on record: Rattus norvegicus; format: toxicity, organism-based, Sprague-Dawley; conditions: in vivo, po, 120 mg/kg, 24 h, tissue Blood, route oral GAVAGE, dose level High, time 1 day, vehicle 100 % WATER
Description: DrugMatrix - Regimen: Single
MEASURE NAME: ABSOLUTE MONOCYTE
Units required after the number.

[in] Look up ABSOLUTE MONOCYTE for this compound: COCCc1ccc(OCC(O)CNC(C)C)cc1 (stereo unspecified)
[out] 290 cells/µL

###

PLATELET COUNT reference
organism: Rattus norvegicus; experiment: DrugMatrix - Regimen: Daily Repeat; format: toxicity, organism-based, Sprague-Dawley; parameters: regimen Daily Repeat, gender Male, age 6-8 weeks; conditions: in vivo, po, 0 mg/kg, 120 h, tissue Blood, route oral GAVAGE, dose level Control, time 5 day, vehicle 100 % WATER
Quick note: give the figure in x10E3/uL, leave out the unit.

- CNNCc1ccc(C(=O)NC(C)C)cc1: 802
- Cn1cc[nH]c1=S: 1141
- COc1cc2nc(N3CCN(C(=O)C4COc5ccccc5O4)CC3)nc(N)c2cc1OC (stereo not given): 1186.67
- Nc1c2c(nc3ccccc13)CCCC2: 1190.6

Could you now consider this next compound?
[in] Look up PLATELET COUNT for this compound: Cc1onc(-c2ccccc2Cl)c1C(=O)N[C@@H]1C(=O)N2[C@@H]1SC(C)(C)[C@@H]2C(=O)O
[out] 1280.5

###

organism: Rattus norvegicus; experiment: DrugMatrix - Regimen: Daily Repeat; type: toxicity, organism-based, Sprague-Dawley; design: regimen Daily Repeat, gender Male, age 6-8 weeks; details: in vivo, po, 0 mg/kg, […], tissue Blood, route oral GAVAGE, dose level Control, time 14 day, vehicle 100 % WATER
MEASURE NAME: ABSOLUTE MONOCYTE (cells/µL)
Quick note: give the figure in cells/µL, leave out the unit.

[in] Look up ABSOLUTE MONOCYTE for this compound: COCCc1ccc(OCC(O)CNC(C)C)cc1 (stereo unspecified) [METOPROLOL]
[out] 270

###

TOTAL BILIRUBIN reference
organism: Rattus norvegicus; experiment: DrugMatrix - Regimen: Daily Repeat; assay type: toxicity, organism-based, Sprague-Dawley; parameters: regimen Daily Repeat, gender Male, age 6-8 weeks; settings: in vivo, po, 0 mg/kg, 120 h, tissue Plasma, route oral GAVAGE, dose level Control, time 5 day, vehicle .5 % CMC
Units required after the number.

Some solved entries appear below for comparison.
• N=C(N)NCCN1CCCCCCC1 = 0.55 mg/dL
• CCCN1C[C@H](CSC)C[C@@H]2c3cccc4[nH]cc(c34)C[C@H]21 [PERGOLIDE] = 0.2 mg/dL
• C1CCC(C(CC2CCCCN2)C2CCCCC2)CC1 (stereo not given) = 0.65 mg/dL
• CN1CCN(CCCN2c3ccccc3Sc3ccc(Cl)cc32)CC1 = 0.18 mg/dL

Could you now consider this next molecule?
[in] Look up TOTAL BILIRUBIN for this molecule: ClC(Cl)Br
[out] 0.22 mg/dL

###

MEAN CORPUSCULAR HEMOGLOBIN CONCENTRATION reference
species on record: Rattus norvegicus; experiment: DrugMatrix - Regimen: Daily Repeat; assay type: toxicity, organism-based, Sprague-Dawley; set-up: regimen Daily Repeat, gender Male, age 6-8 weeks; conditions: in vivo, po, 0 mg/kg, 120 h, tissue Blood, route oral GAVAGE, dose level Control, time 5 day, vehicle 100 % WATER
Quick note: give the figure in G/DL, leave out the unit.

- COc1cc2nc(N3CCN(C(=O)C4COc5ccccc5O4)CC3)nc(N)c2cc1OC (stereo unspecified): 38.52
- CC(O)CO (stereo unspecified): 39.43
- N[C@@H](Cc1ccc(O)c(O)c1)C(=O)O: 38.52
- CNNCc1ccc(C(=O)NC(C)C)cc1: 39.57

[in] Look up MEAN CORPUSCULAR HEMOGLOBIN CONCENTRATION for this compound: Nc1c2c(nc3ccccc13)CCCC2
[out] 39.44

[in] Next record, please: Clc1cccc(Cl)c1N=C1NCCN1
[out] 39.77

[in] Next record, please: C[C@H]1c2cccc(O)c2C(=O)C2=C(O)[C@]3(O)C(=O)C(C(N)=O)=C(O)[C@@H](N(C)C)[C@@H]3[C@@H](O)[C@@H]21.O
[out] 38.52

[in] Next record, please: C[C@](N)(Cc1ccc(O)c(O)c1)C(=O)O
[out] 37.35

[in] Next record, please: Cc1onc(-c2ccccc2Cl)c1C(=O)N[C@@H]1C(=O)N2[C@@H]1SC(C)(C)[C@@H]2C(=O)O
[out] 39.43

[in] Next record, please: NCCCCCC(=O)O
[out] 39.43

[in] Next record, please: CN(C)CCCN1c2ccccc2Sc2ccc(Cl)cc21
[out] 38.57

The reported numbers originate from ChEMBL document CHEMBL3885881.
